assay: ATG_AP_2_CIS: Attagene CIS-FACTORIAL HepG2 Assay for human Activator Protein 2 (AP-2) (AID 2282932); settings: HepG2 AP-2 cis-reporter, Attagene transcription factor profiling; actives raise or lower the signal
The source made the active and inactive calls. How the source made its calls: active means hit-call score of the fitted dose curve at least 0.9, where 1 is the maximum; inactive means score below 0.9.
Respond only with the outcome that fits, drawn from active, inactive

Sample answers from the record:
O=P(OC(CCl)CCl)(OC(CCl)CCl)OC(CCl)CCl    inactive
COCCOCCOCCOC    inactive
Cc1c(-c2cccnc2)c2ccccc2n1CCCCC(=O)O    inactive

Prompt line: What did this assay record as the result for CC1(C)C(=O)N(Br)C(=O)N1Br ?
Response line: inactive

Prompt line: What did this assay record as the result for O=c1[nH]c2ccc(S(=O)CCN3CCC(Cc4ccc(F)cc4)CC3)cc2o1 (centres undefined) ?
Response line: inactive

Prompt line: What did this assay record as the result for Cc1ccc(C)c(O)c1 ?
Response line: inactive

Prompt line: What did this assay record as the result for C[C@](N)(Cc1ccc(O)c(O)c1)C(=O)O ?
Response line: inactive

* * *

assay: BSK_CASM3C_Proliferation: Cell Proliferation Assessment in the BioMAP Diversity Plus: CASM3C Assay (AID 2283047); conditions: primary human coronary artery smooth muscle cells;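 further: sulforhodamine B total protein stain as relative cell number at 560 nm; sub-confluent cells exposed 48 h before staining; fitted both ways against DMSO so gain or loss of cell number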
Calls of active or inactive are those of the source. The calls were made as follows: active = hit-call score of the fitted dose curve at least 0.9, where 1 is the maximum; inactive = score below 0.9.
Respond only with the outcome that fits, drawn from yes (1) (active), no (0) (inactive)

Sample answers from the record:
O=C(O)c1cccc(Oc2ccccc2)c1    no (0)
Cn1c(=O)cc(Oc2ccc(F)cc2F)c2cnc(NCC(C)(C)O)nc21    no (0)
COc1ccc2sc(C(=O)Nc3nnn[nH]3)c(OC(C)C)c2c1    yes (1)

Field: next compound
Prompt line: What did this assay record as the result for CCNc1ccccc1 ?
Response line: no (0)

* * *

test: ATG_AP_1_CIS: Attagene CIS-FACTORIAL HepG2 Assay for human Activator Protein 1 (AP-1) (AID 2282931); settings: HepG2 Attagene cis-factorial AP-1 reporter mRNA; actives raise or lower the signal
The source made the active and inactive calls. Rule for the calls: active = hit-call score of the fitted dose curve at least 0.9, where 1 is the maximum; inactive = score below 0.9.
Respond only with the outcome that fits, drawn from active, inactive

Sample answers from the record:
C[C@](N)(Cc1ccc(O)c(O)c1)C(=O)O    inactive
Cc1c(-c2cccnc2)c2ccccc2n1CCCCC(=O)O    inactive
CC(C)=CCC/C(C)=C/CO    inactive

Prompt line: What did this assay record as the result for Cc1[nH]cnc1C[C@H]1CCc2c(C)c3ccccc3n2C1=O ?
Response line: inactive

Prompt line: What did this assay record as the result for CCCCCCCCCCCCCCCO ?
Response line: inactive

Prompt line: What did this assay record as the result for CC(=O)OC[C@H]1O[C@@](COC(C)=O)(O[C@H]2O[C@H](COC(C)=O)[C@@H](OC(C)=O)[C@H](OC(C)=O)[C@H]2OC(C)=O)[C@@H](OC(C)=O)[C@@H]1OC(C)=O ?
Response line: inactive

Prompt line: What did this assay record as the result for O=P(OC(CCl)CCl)(OC(CCl)CCl)OC(CCl)CCl ?
Response line: inactive

Prompt line: What did this assay record as the result for CC(=O)c1ccc2c(c1)[C@H](NC(=O)c1ccc(F)cc1)[C@@H](O)C(C)(C)O2 ?
Response line: inactive

Prompt line: What did this assay record as the result for O=C(O)c1cccc(N(Cc2cccnc2)c2ccc(OC(F)F)c(OC(F)F)c2)c1 ?
Response line: inactive

Prompt line: What did this assay record as the result for CC(C)=CCCC(C)=CC=O ?
Response line: active

Prompt line: What did this assay record as the result for Clc1nc(Cl)c(Cl)c(Cl)c1Cl ?
Response line: inactive

Prompt line: What did this assay record as the result for O=C(CCCCCCCCc1cccnc1)N1CCC(C=C(c2ccccc2)c2ccccc2)CC1 ?
Response line: active

Prompt line: What did this assay record as the result for O=C(O)CC(O)C(=O)O (stereo not given) ?
Response line: inactive

Prompt line: What did this assay record as the result for CCn1nc(Cc2ccccc2)cc1C1CCN(C[C@H]2C[C@H](N(C)[C@@H](C(=O)O)C(C)C)C[C@@H]2c2cccc(F)c2)CC1 ?
Response line: inactive

Prompt line: What did this assay record as the result for COc1cccc(-c2ccc(/C=C\CN3CCCCCC3)cc2Cl)c1 ?
Response line: active
